Just for reference, patent US12227512B2 is where these values come from.

assay procedure: Mouse PK evaluation, plasma, IV
applied conditions: CD-1, mouse, in vivo, 3 mg/kg, Plasma concentration, Mean, 3 mg/kg IV, CD-1 mice, 4 h
property measured: concentration at 4 h (ng/mL)
State just the number; it will be interpreted in ng/mL.

Task: Name the reported concentration at 4 h value associated with the molecule CN(C)CCCn1c(N)nc2ccc3c(c21)CC(CN(C)C)O3 (single isomer, unassigned) [Compound E1]
Result: 13.5

----------
assay procedure: Mouse PK evaluation, plasma, IV
applied conditions: CD-1, mouse, in vivo, iv, 3 mg/kg, AUClast, Mouse 2, 3 mg/kg IV, CD-1 mice
property measured: AUC(0-t)

Task: Given the compound CN(C)CCCn1c(N)nc2ccc3c(c21)CC(CN(C)C)O3 (single isomer, unassigned) [Compound E1] , what is its reported AUC(0-t)?
Result: 324 ng·h/mL
